# test system: Human eIF4E (Homo sapiens)
IC50 listing for selected molecules.

Answered examples (3):
CC(C)C(CC(=O)O)Nc1nc(-c2ccc(Oc3ccccc3)cc2)c(-c2cccc3[nH]ccc23)s1 (stereo not shown) | 5 to 25 µM
O=C(O)C1(CNc2nc(-c3ccc(-c4cnco4)cc3)c(-c3ccccc3)s2)CC1 | > 25 µM
CC(C)C(CC(=O)O)Nc1nc(-c2ccc(-c3ccc(F)cc3)cc2)cs1 (stereo not shown) | 5 to 25 µM

Reported IC50 for Human eIF4E (Homo sapiens), given `CC(C)(CNc1nc(-c2ccc(-c3ccc(F)cc3)cc2)cs1)C(=O)O` ?
> 25 µM

What measured IC50 is associated with O=C(O)C1CCCN(c2nc(-c3ccc(Oc4ccccc4)cc3)cs2)C1 (stereo not shown) on Human eIF4E (Homo sapiens)?
> 25 µM

Record lookup: for Human eIF4E (Homo sapiens), what IC50 belongs to `O=C(O)C1CCN(c2nc(-c3ccc(-c4cnco4)cc3)c(-c3cccc4[nH]ccc34)s2)CC1` ?
> 25 µM

Test system Human eIF4E (Homo sapiens); read-out IC50; what value for CC(CNc1nc(-c2ccc(-c3ccc(F)cc3)cc2)c(Br)s1)C(=O)O (stereo not shown) ?
5 to 25 µM

Please tell me: IC50 of CC1(C(=O)O)CCCN(c2nc(-c3ccc(Oc4ccccc4)cc3)c(-c3ccccc3)s2)C1 (stereo not shown) , system Human eIF4E (Homo sapiens)?
< 5 µM

----------
As an illustration, consider measured IC50 for compounds on UniProt P06730.

Observe how each entry below is paired with its result.
O=C(O)CCc1nc(-c2ccc(-c3ccc(F)cc3)cc2)c(-c2ccccc2)s1 [Compound I-234] | < 5 µM
O=C(O)C1CN(c2nc(-c3ccc(-c4cnco4)cc3)c(-c3cccnc3)s2)C1 [Compound I-11] | > 25 µM

// query IC50 value for entry CC(CNc1nc(-c2ccc(-c3ccc(F)cc3)cc2)c(C(F)(F)F)s1)C(=O)O (stereo not shown) [Compound I-229]
< 5 µM

Entry CC1(C(=O)O)CN(c2nc(-c3ccc(Oc4ccccc4)cc3)c(-c3cncnc3)s2)C1 [Compound I-164] has what IC50?
> 25 µM

----------
# test system: UniProtKB P06730
quantity name: IC50

Worked cases, answers included:
CC(C)C(CC(=O)O)Nc1nc(-c2ccc(Oc3ccccc3)cc2)cs1 (stereo not shown) | > 25 µM
CC1(C(=O)O)CCCN(c2nc(-c3ccc(Oc4ccccc4)cc3)c(-c3cccc4[nH]ccc34)s2)C1 (stereo not shown) | < 5 µM
CC(C)C(CC(=O)O)Nc1nc(-c2ccc(-c3ccc(F)cc3)cc2)c(-c2cccnc2)s1 (stereo not shown) | > 25 µM
O=C(O)C1CN(c2nc(-c3ccc(Oc4ccccc4)cc3)c(-c3cncnc3)s2)CCO1 (stereo not shown) | > 25 µM
O=C(O)C1CCN(c2nc(-c3ccc(-c4cnco4)cc3)c(-c3cccnc3)s2)CC1 | > 25 µM

So what does the record say about IC50 for O=C(O)C1CCCN(c2nc(-c3ccc(-c4ccc(F)cc4)cc3)cs2)C1 (stereo not shown) ?
5 to 25 µM

Recorded IC50 for `O=C(O)[C@@H]1CCCN(c2nc(-c3ccc(Oc4ccccc4)cc3)c(-c3ccccc3)s2)C1` , please?
< 5 µM

----------
Observed IC50 for Human eIF4E (Homo sapiens), reported per entry below.

Cc1sc(N2CCOC(C(=O)O)C2)nc1-c1ccc(-c2ccc(F)cc2)cc1 (centres unmarked) | 5 to 25 µM
O=C(O)C1(CNc2nc(-c3ccc(-c4cnco4)cc3)c(-c3cccnc3)s2)CC1 | > 25 µM
CC(C)(CNc1nc(-c2ccc(-c3cnco3)cc2)c(-c2cncnc2)s1)C(=O)O | > 25 µM
O=C(O)C1CCN(c2nc(-c3ccc(-c4ccc(F)cc4)cc3)c(-c3ccccc3)s2)CC1 | < 5 µM

May I ask what IC50 has been recorded for CC(CC(=O)O)Nc1nc(-c2ccc(Oc3ccccc3)cc2)c(-c2cncnc2)s1 (centres unmarked) ?
> 25 µM

Recorded IC50 of O=C(O)CC1CCCN1c1nc(-c2ccc(-c3ccc(F)cc3)cc2)c(-c2cccc3[nH]ccc23)s1 (centres unmarked) , please.
< 5 µM

Given the entry `CC(C)(CNc1nc(-c2ccc(-c3ccc(F)cc3)cc2)c(-c2cccnc2)s1)C(=O)O` , report its measured IC50.
5 to 25 µM

Entry under review: `CC1(C(=O)O)CN(c2nc(-c3ccc(-c4cnco4)cc3)c(-c3cccc4[nH]ccc34)s2)C1` . Reported IC50?
> 25 µM

----------
// values below are pIC50; system is Human eIF4E (Homo sapiens)
pIC50: −log10 of the molar value.

Cc1sc(NCC(C)C(=O)O)nc1-c1ccc(-c2ccc(F)cc2)cc1 (stereo not shown) [Compound I-230] | 4.60 to 5.30
O=C(O)C1(CNc2nc(-c3ccc(Oc4ccccc4)cc3)c(-c3cccc4[nH]ccc34)s2)CC1 [Compound I-199] | 4.60 to 5.30
O=C(O)CC1CCCN1c1nc(-c2ccc(-c3cnco3)cc2)c(-c2cncnc2)s1 (stereo not shown) [Compound I-37] | < 4.60
CC1(C(=O)O)CN(c2nc(-c3ccc(Oc4ccccc4)cc3)c(-c3cccc4[nH]ccc34)s2)C1 [Compound I-166] | 4.60 to 5.30

Give the reported pIC50 for O=C(O)C1CCCN(c2nc(-c3ccc(-c4ccc(F)cc4)cc3)c(-c3ccccc3)s2)C1 (stereo not shown) [Compound I-106] (system: Human eIF4E (Homo sapiens)).
> 5.30

Notebook entry, Human eIF4E (Homo sapiens) assay: pIC50 of O=C(O)C1CN(c2nc(-c3ccc(-c4ccc(F)cc4)cc3)c(-c3cccnc3)s2)C1 [Compound I-79] = ?
< 4.60

Lookup: pIC50 / Human eIF4E (Homo sapiens) / O=C(O)C1CN(c2nc(-c3ccc(Oc4ccccc4)cc3)c(-c3cccnc3)s2)CCO1 (stereo not shown) [Compound I-215]
< 4.60

Notebook: pull reported pIC50 for Human eIF4E (Homo sapiens), entry CC(C)(CNc1nc(-c2ccc(Oc3ccccc3)cc2)c(-c2cccnc2)s1)C(=O)O [Compound I-156]
< 4.60

----------
Consider compounds characterized by their IC50 with Human eIF4E (Homo sapiens, UniProt P06730).
Sequence (P06730 28-217): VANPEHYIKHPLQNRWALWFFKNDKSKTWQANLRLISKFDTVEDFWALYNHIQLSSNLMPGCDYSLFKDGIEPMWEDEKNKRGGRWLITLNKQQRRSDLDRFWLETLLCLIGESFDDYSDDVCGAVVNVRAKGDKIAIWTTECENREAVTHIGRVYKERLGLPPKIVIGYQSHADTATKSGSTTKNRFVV

CC(C)C(CC(=O)O)Nc1nc(-c2ccccc2)c(-c2ccc(-c3cnco3)cc2)s1 (stereo not shown) | > 25 µM
CC(C)C(CC(=O)O)Nc1nc(-c2ccc(Oc3ccccc3)cc2)c(-c2ccccc2)s1 (stereo not shown) | 5 to 25 µM
O=C(O)C1CCCN(c2nc(-c3ccc(-c4cnco4)cc3)c(-c3ccccc3)s2)C1 (stereo not shown) | > 25 µM
CC(C)C(CC(=O)O)Nc1nc(-c2ccc(Oc3ccccc3)cc2)c(-c2cccnc2)s1 (stereo not shown) | > 25 µM
O=C(O)C1CCN(c2nc(-c3ccc(-c4cnco4)cc3)c(-c3cncnc3)s2)CC1 | > 25 µM
O=C(O)C1CN(c2nc(-c3ccc(Oc4ccccc4)cc3)c(-c3cccc4[nH]ccc34)s2)CCO1 (stereo not shown) | > 25 µM
CC(CNc1nc(-c2ccc(Oc3ccccc3)cc2)c(-c2cncnc2)s1)C(=O)O (stereo not shown) | > 25 µM
O=C(O)C1(CNc2nc(-c3ccc(-c4ccc(F)cc4)cc3)c(-c3cncnc3)s2)CC1 | > 25 µM
CC(C)C(CC(=O)O)Nc1nc(-c2ccc(-c3ccc(F)cc3)cc2)c(-c2cncnc2)s1 (stereo not shown) | > 25 µM
O=C(O)C1CCCN(c2nc(-c3ccc(-c4cnco4)cc3)c(-c3cccnc3)s2)C1 (stereo not shown) | > 25 µM

# lookup: IC50 of CC(CC(=O)O)Nc1nc(-c2ccc(-c3ccc(F)cc3)cc2)c(Br)s1 (stereo not shown)
5 to 25 µM

For the compound shown here, Cc1nc(N2CCOC(C(=O)O)C2)sc1-c1ccc(-c2ccc(F)cc2)cc1 (stereo not shown) , give the reported IC50.
5 to 25 µM

Suppose we examine the compound `O=C(O)C1CCN(c2nc(-c3ccc(-c4ccc(F)cc4)cc3)c(-c3cccnc3)s2)CC1` ; what IC50 value has been reported?
5 to 25 µM

Field request: IC50 | item: O=C(O)C1CCN(c2nc(-c3ccc(-c4cnco4)cc3)c(-c3cccnc3)s2)C1 (stereo not shown)
> 25 µM

Value lookup for IC50; key = CCCC(CNc1nc(-c2ccc(Oc3ccccc3)cc2)c(-c2ccccc2)s1)C(=O)O (stereo not shown)
< 5 µM

Form field: reported IC50 of O=C(O)CC1CCCN1c1nc(-c2ccc(-c3cnco3)cc2)c(-c2cccnc2)s1 (stereo not shown)
> 25 µM

----------
# test system: Human eIF4E (Homo sapiens)
Reported IC50 values are given for each entry in this list.

O=C(O)C1CCN(c2nc(-c3ccc(-c4ccc(F)cc4)cc3)c(-c3cccc4[nH]ccc34)s2)C1 (stereo not shown) | 5 to 25 µM
CCCC(CNc1nc(-c2ccc(-c3ccc(F)cc3)cc2)c(Br)s1)C(=O)O (stereo not shown) | 5 to 25 µM
O=C(O)C1CC(CNc2nc(-c3ccc(-c4ccc(F)cc4)cc3)c(Br)s2)C1 (stereo not shown) | 5 to 25 µM

Hi! What's the reported IC50 for `CC1(C(=O)O)CN(c2nc(-c3ccc(-c4ccc(F)cc4)cc3)c(-c3ccccc3)s2)C1` on Human eIF4E (Homo sapiens)?
< 5 µM
